target: NK-1-Rezeptor (Cavia porcellus, UniProt P30547); construct: Ringpräparaten der Aorta von Pirbright-White Meerschweinchen; assay: Functional NK-1 antagonism on isolated guinea pig aorta rings in vitro (inhibition of Substanz P induced tone relaxation); conditions: aorta rings toned with Phenylephrin, stimulated with 0,01 µmol Substanz P; read-out: IC50 (halbmaximale Hemmung der Tonusrelaxation)
Sequence (P30547 whole entry): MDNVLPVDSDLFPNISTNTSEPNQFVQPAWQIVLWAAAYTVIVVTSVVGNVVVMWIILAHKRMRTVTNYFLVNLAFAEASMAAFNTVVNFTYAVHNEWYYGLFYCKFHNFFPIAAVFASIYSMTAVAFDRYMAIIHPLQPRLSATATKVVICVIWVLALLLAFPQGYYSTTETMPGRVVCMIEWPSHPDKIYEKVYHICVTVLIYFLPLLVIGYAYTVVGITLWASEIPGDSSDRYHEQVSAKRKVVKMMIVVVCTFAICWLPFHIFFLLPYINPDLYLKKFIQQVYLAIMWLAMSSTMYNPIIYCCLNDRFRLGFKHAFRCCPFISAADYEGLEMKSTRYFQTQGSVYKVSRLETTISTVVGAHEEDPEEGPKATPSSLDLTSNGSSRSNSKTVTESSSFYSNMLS
pIC50: −log10 of the molar value.
// reported pIC50 for each item listed
MEASURED_QUANTITY: pIC50

>>> result_number("O=C(NCCNCc1ccc(F)cc1)N1CCN(C(=O)c2cc(C(F)(F)F)cc(C(F)(F)F)c2)C(Cc2c[nH]c3ccccc23)C1 (stereo not drawn)")
8.82
>>> result_number("COc1ccccc1CNCCNC(=O)N1CCN(C(=O)c2cc(C(F)(F)F)cc(C(F)(F)F)c2)[C@H](Cc2c[nH]c3ccccc23)C1")
9.00
>>> result_number("COc1ccccc1CN(C)CCNC(=O)N1CCN(C(=O)c2cc(C(F)(F)F)cc(C(F)(F)F)c2)C(Cc2c[nH]c3ccccc23)C1 (stereo not drawn)")
8.92

Taken from patent EP0899270B1.
